IC50 for assorted compounds
system.tested: BRD4 (Homo sapiens)
procedure.text: Time resolved fluorescence resonance energy transfer (TR-FRET) binding assay, bromodomain BRD4
assay.setup: one of the FRET assays described; read-out: FRET BRD4 IC50

Below: 2 compounds and their reported IC50.
INSERT INTO results (entry_smiles, experimental_value) VALUES
  ('COc1nnn(C)c1-c1cnc2c3cnc(N4C[C@@H](C)S(=O)(=O)[C@H](C)C4)nc3n([C@H](c3ccccc3)C3CCOCC3)c2c1', '< 10 nM'),
  ('[2H]C([2H])([2H])c1nnn(C)c1-c1cnc2c3c(OCC4CC4)ncc(S(C)(=O)=O)c3n([C@H](c3ccccc3)C3CCC(F)(F)CC3)c2c1', '< 10 nM');

*Q* Query IC50 on BRD4 (Homo sapiens) for [2H]C([2H])([2H])c1nnn(C)c1-c1cnc2c3cnc(C(C)=O)cc3n([C@H](c3ccccc3F)C3CCOCC3)c2c1
*A* < 10 nM

* * *

Here, each record is paired with measured pIC50 data.
system.tested: BRD4 (Homo sapiens, UniProt O60885)
procedure.text: Time resolved fluorescence resonance energy transfer (TR-FRET) binding assay, bromodomain BRD4
assay.setup: one of the FRET assays described; read-out: FRET BRD4 IC50
pIC50: −log10 of the molar value.

*Q* State its pIC50 on BRD4 (Homo sapiens, UniProt O60885): [2H]C([2H])([2H])c1nnn(C)c1-c1cnc2c3ccncc3n([C@H](c3ccccc3)C3CCOCC3)c2c1
*A* > 9.00

* * *

system.tested: BRD4 (Homo sapiens, UniProt O60885)
procedure.text: Time resolved fluorescence resonance energy transfer (TR-FRET) binding assay, bromodomain BRD4
assay.setup: one of the FRET assays described; read-out: FRET BRD4 IC50
pIC50: −log10 of the molar value.
observed.property: pIC50

*Q* Please look up its pIC50: CC(=O)c1cc2c(cn1)c1ncc(-c3c(C)nnn3C)cc1n2[C@H](c1ccc(F)cc1)C1CCOCC1
*A* > 8.00

*Q* // pIC50 lookup, key: COc1nccc2c3ncc(-c4c(C)nnn4C)cc3n([C@H](c3ccccc3)C3CCOCC3)c12
*A* > 9.00

*Q* Recorded pIC50 for Cc1nnn(C)c1-c1cnc2c3c(O)ncc(S(C)(=O)=O)c3n([C@H](c3ccccc3)C3CCOCC3)c2c1 , please?
*A* > 8.00

*Q* Suppose we examine the compound Cc1nnn(C)c1-c1cnc2c3ccnc(Cl)c3n([C@H](c3ccccc3)C3CCOCC3)c2c1 ; what pIC50 value has been reported?
*A* > 9.00

*Q* If you can, please state the reported pIC50 value of Cc1nnn(C)c1-c1cnc2c3ccc(-c4cnn(C5CC5)c4)nc3n([C@H](c3ccccc3)C3CCOCC3)c2c1 .
*A* > 9.00

*Q* Quick one: pIC50 of COc1ncc(S(C)(=O)=O)c2c1c1ncc(-c3c(C)noc3C)cc1n2[C@H](c1ccc(F)cc1)C1CCOCC1 ?
*A* > 9.00

*Q* Could you share which pIC50 value was measured for [2H]C([2H])([2H])c1nnn(C)c1-c1cnc2c3c(OCC4CC4)ncc(S(C)(=O)=O)c3n([C@H](c3ccccc3F)C3CCOCC3)c2c1 ?
*A* > 9.00

* * *

system.tested: BRD4 (Homo sapiens)
procedure.text: Time resolved fluorescence resonance energy transfer (TR-FRET) binding assay, bromodomain BRD4
assay.setup: one of the FRET assays described; read-out: FRET BRD4 IC50
pIC50: −log10 of the molar value.
Entries and their pIC50

Examples from the recorded data:
INSERT INTO assay_data (compound, experimental_value) VALUES
  ('[2H]C([2H])([2H])c1nnn(C)c1-c1cnc2c3cnc(Cl)cc3n([C@H](c3ccccc3F)C3CCOCC3)c2c1', '> 8.00'),
  ('[2H]C([2H])([2H])c1nnn(C)c1-c1cnc2c3c(OCC)ncc(S(C)(=O)=O)c3n([C@H](c3ccc(F)cc3)C3CCOCC3)c2c1', '> 9.00'),
  ('Cc1cnn(C)c1-c1ccc2c3ncc(-c4c(C)nnn4C)cc3n([C@H](c3ccccc3)C3CCOCC3)c2n1', '> 8.00'),
  ('[2H]C([2H])([2H])c1nnn(C)c1-c1cnc2c3c(OC)ncc(S(C)(=O)=O)c3n(C(c3cccc(F)c3)C3CCOCC3)c2c1 (single isomer, unassigned) [Example 86]', '> 8.00'),
  ('[2H]C([2H])([2H])c1nnn(C)c1-c1cnc2c3ccc(NC)nc3n([C@H](c3ccccc3F)C3CCOCC3)c2c1', '> 8.00');

*Q* Please state recorded pIC50 (tested on BRD4 (Homo sapiens)) of Cc1noc(C)c1-c1cnc2c3c(NS(=O)(=O)C(C)C)ncc(S(C)(=O)=O)c3n([C@H](c3ccccc3)C3CCOCC3)c2c1
*A* > 8.00

*Q* Which measured pIC50 belongs to [2H]C([2H])([2H])c1nnn(C)c1-c1cnc2c3c(NCC(F)F)ncc(S(C)(=O)=O)c3n([C@H](c3ccccc3)C3CCOCC3)c2c1 , tested on BRD4 (Homo sapiens)?
*A* > 8.00

*Q* What is its pIC50 for BRD4 (Homo sapiens)? Entry: COc1ncc(S(C)(=O)=O)c2c1c1ncc(-c3c(C)noc3C)cc1n2[C@H](c1ccccc1F)C1CCOCC1
*A* > 9.00

*Q* Request: pIC50, test system BRD4 (Homo sapiens), entry Cc1noc(C)c1-c1cnc2c3c(OCC4CC4)ncc(S(C)(=O)=O)c3n([C@H](c3ccccc3)C3CCOCC3)c2c1
*A* > 8.00

*Q* # query: pIC50 | item [2H]C([2H])([2H])c1nnn(C)c1-c1cnc2c3c(Cl)cnc(Cl)c3n([C@H](c3ccccc3)C3CCOCC3)c2c1 | system: BRD4 (Homo sapiens)
*A* > 9.00

*Q* Identify the measured pIC50 of [2H]C([2H])([2H])c1onc(C)c1-c1cnc2c3c(OC)ncc(S(=O)(=O)C([2H])([2H])[2H])c3n(C(c3ncccc3F)C3CCOCC3)c2c1 (stereo not shown) [Example 67] for BRD4 (Homo sapiens).
*A* > 5.82

* * *

Reported IC50 values for a set of molecules
system.tested: BRD4 (Homo sapiens, UniProt O60885)
procedure.text: Time resolved fluorescence resonance energy transfer (TR-FRET) binding assay, bromodomain BRD4
assay.setup: one of the FRET assays described; read-out: FRET BRD4 IC50

Solved cases below.
INSERT INTO measurements (molecule, system_tested, experimental_value) VALUES
  ('[2H]C([2H])([2H])c1nnn(C)c1-c1cnc2c3c(OCC)ncc(S(C)(=O)=O)c3n(C(c3ncccc3F)C3CCOCC3)c2c1 (stereo not drawn) [Example 68]', 'BRD4 (Homo sapiens, UniProt O60885)', '< 1 nM'),
  ('[2H]C([2H])([2H])c1nnn(C)c1-c1cnc2c3ccc(C(C)(O)C4CC4)nc3n([C@H](c3ccccc3F)C3CCOCC3)c2c1 (stereo partly drawn) [Example 243]', 'BRD4 (Homo sapiens, UniProt O60885)', '< 10 nM'),
  ('Cc1nnn(C)c1-c1cnc2c3ccc(NC(=O)OC(C)C)nc3n([C@H](c3ccccc3)C3CCOCC3)c2c1', 'BRD4 (Homo sapiens, UniProt O60885)', '< 10 nM'),
  ('[2H]C([2H])([2H])c1nnn(C)c1-c1cnc2c3c(OC(C)C)ncc(S(C)(=O)=O)c3n(C(c3ncccc3F)C3CCOCC3)c2c1 (stereo not drawn) [Example 71]', 'BRD4 (Homo sapiens, UniProt O60885)', '< 1500 nM');

*Q* What value of IC50 has been recorded for this entry: [2H]C([2H])([2H])c1nnn(C)c1-c1cnc2c3c(OC(C)C)ncc(S(C)(=O)=O)c3n(C(c3ncccc3F)C3CCOCC3)c2c1 (stereo not drawn) [Example 70]
*A* < 1 nM

*Q* Which value of IC50 has been reported for Cc1cnn(C)c1-c1cnc2c3ccc(S(C)(=O)=O)nc3n([C@H](c3ccccc3)C3CCOCC3)c2c1 in the records?
*A* < 1500 nM

* * *

system.tested: BRD4 (Homo sapiens)
procedure.text: Time resolved fluorescence resonance energy transfer (TR-FRET) binding assay, bromodomain BRD4
assay.setup: one of the FRET assays described; read-out: FRET BRD4 IC50
pIC50: −log10 of the molar value.
Entries and their pIC50 values follow.

Answered cases to consult:
INSERT INTO results (compound, experimental_value) VALUES
  ('[2H]C([2H])([2H])c1nnn(C)c1-c1cnc2c3c(OC)ncc(S(C)(=O)=O)c3n(C(c3c(F)cc(F)cc3F)C3CCOCC3)c2c1 (single isomer, unassigned) [Example 84]', '> 5.82'),
  ('Cc1nnn(C)c1-c1cnc2c3ccc(NS(C)(=O)=O)nc3n([C@H](c3ccccc3F)C3CCOCC3)c2c1', '> 8.00'),
  ('[2H]C([2H])([2H])c1nnn(C)c1-c1cnc2c3cnc(C(C)(C)O)cc3n(C(CCC)c3ncccc3F)c2c1 (stereo not shown) [Example 360]', '> 8.00'),
  ('[2H]C([2H])([2H])c1nnn(C)c1-c1cnc2c3ccc(-c4c(C([2H])([2H])[2H])nnn4C)nc3n(C(c3ncccc3F)C3CCOCC3)c2c1 (stereo not shown) [Example 248]', '> 8.00'),
  ('CCCC(c1ccc(F)cn1)n1c2cc(-c3c(C)nnn3C)ncc2c2ncc(C(C)(C)O)cc21 (single isomer, unassigned) [Example 376]', '> 8.00');

*Q* Param item = [2H]C([2H])([2H])c1nnn(C)c1-c1cnc2c3c(OC)ncc(C(C)(C)O)c3n([C@H](c3ccccc3)C3CCOCC3)c2c1 ; retrieve measured pIC50.
*A* > 8.00

*Q* So what's the measured pIC50 for this one? Cc1nnn(C)c1-c1cnc2c3ccc(NCCP(=O)(O)O)nc3n([C@H](c3ccccc3)C3CCOCC3)c2c1
*A* > 9.00

*Q* Using the record for COc1nnn(C)c1-c1cnc2c3ccc(N4CCS(=O)(=O)CC4)nc3n([C@H](c3ccccc3F)C3CCOCC3)c2c1 , report its pIC50.
*A* > 8.00

*Q* Which pIC50 reading was recorded for the compound Cc1nnn(C)c1-c1cnc2c3ccc(S(=O)(=O)N4CCOCC4)nc3n([C@H](c3ccccc3)C3CCOCC3)c2c1 ?
*A* > 8.00

*Q* # get_value(readout='pIC50', item= [2H]C([2H])([2H])c1nnn(C)c1-c1cnc2c3cnc(C(C)(C)O)cc3n(C(CCC)c3ncccc3F)c2c1 (stereo not shown) [Example 359] )
*A* > 8.00

*Q* Entry under review: COc1nccc2c3ncc(-c4c(C)nnn4C)cc3n(C(c3c(F)cccc3F)C3CCOCC3)c12 (racemic) . Reported pIC50?
*A* > 8.00

*Q* Quick one: pIC50 for [2H]C([2H])([2H])c1nnn(C)c1-c1cnc2c3cncc(S(C)(=O)=O)c3n([C@H](c3ccccc3)C3CCOCC3)c2c1 ?
*A* > 8.00

*Q* Given the compound Cc1nnn(C)c1-c1cnc2c3ccc(NC(=O)C(C)C)nc3n([C@H](c3ccccc3F)C3CCOCC3)c2c1 , what is its reported pIC50?
*A* > 8.00
